# tgt: Aurora kinase A (Homo sapiens)
# Sequence (O14965 whole entry): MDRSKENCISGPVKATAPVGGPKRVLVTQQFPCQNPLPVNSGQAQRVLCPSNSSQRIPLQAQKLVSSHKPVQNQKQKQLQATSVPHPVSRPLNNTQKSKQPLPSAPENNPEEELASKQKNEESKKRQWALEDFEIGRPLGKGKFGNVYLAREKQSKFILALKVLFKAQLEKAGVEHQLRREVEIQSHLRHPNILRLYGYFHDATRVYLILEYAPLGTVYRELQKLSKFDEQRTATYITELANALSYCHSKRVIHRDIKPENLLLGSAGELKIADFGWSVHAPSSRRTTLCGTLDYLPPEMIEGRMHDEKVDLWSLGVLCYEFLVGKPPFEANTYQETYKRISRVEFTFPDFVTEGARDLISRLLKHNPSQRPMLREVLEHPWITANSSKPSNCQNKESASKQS
# test details: Inhibition of recombinant Aurora A (unknown origin) using myelin basic protein as substrate incubated for 30 mins in presence or absence of DTT by [gamma-33P]-ATP based radioactive filter binding assay
property label: pIC50
Please note pIC50 is a logarithmic value: minus log10 of concentration in mol/L. Answer with that number alone.

Give pIC50 (Aurora kinase A (Homo sapiens)) of the following compound: CC(C)(COP(=O)(O)OP(=O)(O)OC[C@@H]1O[C@H](n2cnc3c(N)ncnc32)[C@@H](O)[C@H]1OP(=O)(O)O)[C@H](O)C(=O)NCCC(=O)NCCS
5.30

Kindly state the measured pIC50 obtained for CCCNC(=O)CCNC(=O)[C@H](O)C(C)(C)COC(=O)CCC(=O)OC[C@@H]1O[C@H](n2cnc3c(N)ncnc32)[C@@H](O)[C@H]1O with Aurora kinase A (Homo sapiens).
3.30

Value wanted: pIC50 (Aurora kinase A (Homo sapiens)) of entry CCCNC(=O)CCNC(=O)[C@H](O)C(C)(C)COC(=O)CC(=O)NC[C@@H]1O[C@H](n2cnc3c(N)ncnc32)[C@@H](O)[C@H]1O
2.96
